Source of measurements: patent US20140213531A1

Overview of reported % inhibition at 100 µM across a group of binders:
- measured.target: Trypsin, Iodination grade, from human pancreas (human, UniProt P07477 24-247)
- test: cell-based or functional assay
Give the number first and the unit second.

// returns reported % inhibition at 100 µM for input ICTXSDPPICR (HELM PEPTIDE1{I.C.T.[Nle].S.D.P.P.I.C.R.[dP].P}$PEPTIDE1,PEPTIDE1,2:R3-10:R3|PEPTIDE1,PEPTIDE1,1:R1-13:R2$$$V2.0; SMILES CCCC[C@@H]1NC(=O)[C@H]([C@@H](C)O)NC(=O)[C@@H]2CSSC[C@H](NC(=O)[C@H]([C@@H](C)CC)NC(=O)[C@@H]3CCCN3C(=O)[C@@H]3CCCN3C(=O)[C@H](CC(=O)O)NC(=O)[C@H](CO)NC1=O)C(=O)N[C@@H](CCCNC(=N)N)C(=O)N1CCC[C@@H]1C(=O)N1CCC[C@H]1C(=O)N[C@@H]([C@@H](C)CC)C(=O)N2) [Example 59] 84%

Below: the item to evaluate.
// returns reported % inhibition at 100 µM for input FCTKSDPPXCS (HELM PEPTIDE1{F.C.T.K.S.D.P.P.[Nle].C.S.[dP].P}$PEPTIDE1,PEPTIDE1,2:R3-10:R3|PEPTIDE1,PEPTIDE1,1:R1-13:R2$$$V2.0; SMILES CCCC[C@@H]1NC(=O)[C@@H]2CCCN2C(=O)[C@@H]2CCCN2C(=O)[C@H](CC(=O)O)NC(=O)[C@H](CO)NC(=O)[C@H](CCCCN)NC(=O)[C@H]([C@@H](C)O)NC(=O)[C@@H]2CSSC[C@H](NC1=O)C(=O)N[C@@H](CO)C(=O)N1CCC[C@@H]1C(=O)N1CCC[C@H]1C(=O)N[C@@H](Cc1ccccc1)C(=O)N2) [Example 15] 95%
